So I've got a bunch of molecules here, and I need their TGI values.
- Test system: SF-295 CNS
- TEST_DESCRIPTION: NCI tumour cell line growth inhibition, 48 h
Give just the numeric value; µM need not be written.

What value of measured TGI is listed for CN(C)C/C=C/C(=O)Nc1cc2c(Nc3ccc(F)c(Cl)c3F)ncnc2cc1OCCOC(F)F ?
9.86

Request the reported TGI associated with CC(C)C1CC2C(=O)N(c3ccccc3)C(=O)C2c2[nH]c3ccccc3c21 (stereo not given)
65.5

Entry under review: CCCCCCCC/C=C\CCCCCCCC(=O)O . Reported TGI?
176

Given the molecule Cc1cc(N=Nc2c(O)ccc3ccccc23)ccc1N=Nc1cccc([N+](C)(C)C)c1 , what is its reported TGI?
51.9

Consider the molecule shown here: CS(=O)(=O)Nc1cccc(-c2cc(-c3ccccc3Cl)c(C#N)c(N)n2)c1 What is its recorded TGI?
12.9

Consider the molecule CCCCCCCCCc1cc[n+](CC(=O)c2ccc([N+](=O)[O-])cc2)cc1 and give its measured TGI.
2.79

Find the recorded TGI belonging to C[C@@H]1Cc2c([nH]c3ccccc23)[C@@H](c2c(F)cc(NC3CN(CCCF)C3)cc2F)N1CC(F)(F)CO and report it.
5.21

Requested read-out: TGI. Entry: COC(=O)c1cccc(N[C@@H]2c3cc4c(cc3C(c3cc(OC)c(O)c(OC)c3)[C@H]3C(=O)OCC32)OCO4)c1 (stereo not given in full)
5.96

Which TGI value is on record for C=C1C(=O)C[C@@]23CCC[C@@]12CC(OCOC)C3 (stereo not given in full) ?
17.3
